# Target or test system: human recombinant 5-LO (Homo sapiens)
# Construct: made in house; inferred to be the same preparation
# Sequence (P09917 1-674): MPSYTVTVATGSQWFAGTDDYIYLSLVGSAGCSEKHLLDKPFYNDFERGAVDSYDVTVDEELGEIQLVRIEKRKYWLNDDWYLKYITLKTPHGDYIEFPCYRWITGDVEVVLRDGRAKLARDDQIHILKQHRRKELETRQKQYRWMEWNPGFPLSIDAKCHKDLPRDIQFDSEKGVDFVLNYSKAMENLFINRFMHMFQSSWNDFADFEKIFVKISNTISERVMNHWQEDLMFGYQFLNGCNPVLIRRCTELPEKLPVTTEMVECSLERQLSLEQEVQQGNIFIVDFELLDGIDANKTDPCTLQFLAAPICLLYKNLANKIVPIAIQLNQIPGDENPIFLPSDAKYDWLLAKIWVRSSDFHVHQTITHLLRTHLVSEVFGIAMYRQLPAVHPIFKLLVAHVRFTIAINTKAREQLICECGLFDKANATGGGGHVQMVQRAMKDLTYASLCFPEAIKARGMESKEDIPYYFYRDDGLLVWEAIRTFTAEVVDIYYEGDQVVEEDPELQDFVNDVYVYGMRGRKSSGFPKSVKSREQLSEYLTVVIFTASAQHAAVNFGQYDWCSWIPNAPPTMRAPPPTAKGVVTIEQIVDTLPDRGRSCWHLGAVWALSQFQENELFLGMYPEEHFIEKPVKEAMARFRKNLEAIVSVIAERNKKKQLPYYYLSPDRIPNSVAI
# Experiment: Human recombinant 5-LO activity
# Type: biochemical
pIC50: −log10 of the molar value.

{"Compound": "C/C(=C\\CC/C(C)=C/CCC1(C)CCc2c(C)c(O)cc(C)c2O1)CCC=C(CO)CO (stereo not shown)", "pIC50": 7.04}

---

# Test system: 5-LO product formation in neutrophils
# Experiment: 5-LO product formation in neutrophils
# Type: cell-based, human
# Test settings: Homo sapiens, Neutrophil
Items are presented alongside their recorded IC50.

{"Compound": "C/C(=C\\CC/C(C)=C/CCC1(C)CCc2cc(O)cc(C)c2O1)CCC=C(CO)CO (stereo not shown)", "IC50 (nM)": 419}
{"Compound": "C/C(=C\\CC/C(C)=C/CCC1(C)CCc2c(C)c(O)cc(C)c2O1)CCC=C(CO)CO (stereo not shown)", "IC50 (nM)": 114}
{"Compound": "C/C(=C\\CC/C(C)=C/CCC1(C)CCc2cc(O)c(C)c(C)c2O1)CCC=C(CO)CO (stereo not shown)", "IC50 (nM)": 67}
{"Compound": "CC(=O)N(O)C/C=C/c1cccc(Oc2ccccc2)c1 [BWA4C, reference compound]", "IC50 (nM)": 41}
{"Compound": "C/C(=C/CC/C(C)=C/CC/C(C)=C/CCC1(C)CCc2cc(O)c(C)c(C)c2O1)CO (stereo not shown)", "IC50 (nM)": 140}
{"Compound": "C/C(=C\\CC/C(C)=C/CCC1(C)CCc2c(C)c(O)c(C)c(C)c2O1)CCC=C(CO)CO (stereo not shown)", "IC50 (nM)": 19}
{"Compound": "C/C(=C/CC/C(C)=C/CC/C(C)=C/CCC1(C)CCc2cc(O)cc(C)c2O1)CO (stereo not shown)", "IC50 (nM)": 220}

---

# Test system: HepaRG® cells
# Experiment: Hepatotoxicity assay
# Assay type: cell-based
# Test settings: 1 μM, 48 h
Number of cells values for the compounds below.
Result type: Number of cells

{"Compound": "C/C(=C\\CC/C(C)=C/CCC1(C)CCc2c(C)c(O)cc(C)c2O1)CCC=C(CO)CO (centres unmarked)", "Experimental result": 4436}
{"Compound": "CC(c1cc2ccccc2s1)N(O)C(N)=O (centres unmarked) [Zileuton, reference compound]", "Experimental result": 4244}
{"Compound": "C/C(=C\\CC/C(C)=C/CCC1(C)CCc2cc(O)c(C)c(C)c2O1)CCC=C(CO)CO (centres unmarked)", "Experimental result": 4562}
{"Compound": "C/C(=C\\CC/C(C)=C/CCC1(C)CCc2c(C)c(O)c(C)c(C)c2O1)CCC=C(CO)CO (centres unmarked)", "Experimental result": 4705}
{"Compound": "C/C(=C/CC/C(C)=C/CC/C(C)=C/CCC1(C)CCc2cc(O)c(C)c(C)c2O1)CO (centres unmarked)", "Experimental result": 4412}

Provenance of the data: patent US10494357B2
